The values you see were collected from patent US20250136553A1.

Biological target: human-KAT6A (MYST domain 507-778 aa) (Homo sapiens (Human), UniProt Q92794)
Sequence (Q92794 507-778): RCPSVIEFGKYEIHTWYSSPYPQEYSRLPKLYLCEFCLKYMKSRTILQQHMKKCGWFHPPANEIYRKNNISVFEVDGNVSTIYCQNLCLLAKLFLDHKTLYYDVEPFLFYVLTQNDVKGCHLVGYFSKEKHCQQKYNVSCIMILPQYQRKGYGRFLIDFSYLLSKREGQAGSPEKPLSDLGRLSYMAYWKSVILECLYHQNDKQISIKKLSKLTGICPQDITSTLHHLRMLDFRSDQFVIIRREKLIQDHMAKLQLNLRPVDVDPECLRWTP
Test: KAT6A biochemical assay (TR-FRET)
Details: TR-FRET; histone H4 peptide 200 nM, acetyl-CoA 600 nM; read-out: KAT6A IC50
Response field label: string, one of TRUE (IC50 strictly below 20 nM) or FALSE.

Take a look at these entries with their results.
Compound: COc1cc(OC)c([S@@](=N)(=O)NC(=O)c2ccc(Cn3cccn3)c(OC)n2)c(OC)c1 [Compound 296b]
Class Assignment: FALSE

Compound: COc1cc(C)cc(OC)c1S(=O)(=O)NC(=O)c1ccc(Cn2cccn2)c(OC)n1
Class Assignment: TRUE

Compound: COc1cccc(OC2CCC2)c1S(=O)(=O)NC(=O)c1ccc(Cn2cccn2)c(OC)n1
Class Assignment: TRUE

Compound: COc1cc(OC)c(S(=O)(=O)NC(=O)c2ccc(Cn3cccn3)c(OC)n2)cc1Cl
Class Assignment: FALSE

Compound: COc1cccc(OC(C)C)c1S(=O)(=O)NC(=O)c1ccc(Cn2cccn2)c(OC)n1
Class Assignment: TRUE

# input Hello, is IC50 of the following compound strictly smaller than 20 nM? COc1ccc(C2CC2)cc1S(=O)(=O)NC(=O)c1ncc(Cn2cccn2)c(OC)n1
# output FALSE

# input Try COc1cc(C(=O)NS(=O)(=O)c2cc(Cl)cc3c2OCC3)ccc1Cn1cccn1 next.
# output TRUE

# input Try COc1cc(OC)c(S(=N)(=O)NC(=O)c2ccc(Cn3cccn3)c(OC)c2)c(OC)c1 (racemic) next.
# output FALSE
